- PROTOCOL TEXT: in vivo
- EXPERIMENTAL PARAMETERS: BALB/c nude, mouse, in vivo, iv, total radioactivity, uptake Kidney
PARAMETER: tissue uptake at 24 h (%ID/g)
Record the value in %ID/g, omitting the unit from your answer.

tissue uptake at 24 h for C[C@@H](O)[C@H](NC(=O)[C@@H]1CSSC[C@H](NC(=O)[C@@H](Cc2ccccc2)NC(=O)COCCOCCNC(=O)[C@H](CCCCNC(=O)[C@H](CCC(=O)O)NC(=O)c2cccc(NC(=O)N[C@@H]3CN(C4CCCCC4)c4ccccc4N(CC(=O)C(C)(C)C)C3=O)c2)NC(=O)CN2CCN(CC(=O)O)CCN(CC(=O)O)CCN(CC(=O)O)CC2)C(=O)N[C@@H](Cc2ccc(O)cc2)C(=O)N[C@H](Cc2c[nH]c3ccccc23)C(=O)N[C@@H](CCCCN)C(=O)N[C@@H]([C@@H](C)O)C(=O)N1)C(N)=O [Compound I-3, DOTA-K(-E-Z360)-OEG-f[CYwKTC]T-NH2] ? 16.5

tissue uptake at 24 h for C[C@@H](O)[C@H](NC(=O)[C@@H]1CSSC[C@H](NC(=O)[C@@H](Cc2ccccc2)NC(=O)COCCOCCNC(=O)[C@H](CCCCNC(=O)c2cccc(NC(=O)N[C@@H]3CN(C4CCCCC4)c4ccccc4N(CC(=O)C(C)(C)C)C3=O)c2)NC(=O)CN2CCN(CC(=O)O)CCN(CC(=O)O)CCN(CC(=O)O)CC2)C(=O)N[C@@H](Cc2ccc(O)cc2)C(=O)N[C@H](Cc2c[nH]c3ccccc23)C(=O)N[C@@H](CCCCN)C(=O)N[C@@H]([C@@H](C)O)C(=O)N1)C(=O)O [Compound I-37, DOTA-K(Z360)-OEG-f[CYwKTC]T-OH] ? 7.79

tissue uptake at 24 h for `C[C@@H](O)[C@H](NC(=O)[C@@H]1CSSC[C@H](NC(=O)[C@@H](Cc2ccccc2)NC(=O)COCCOCCNC(=O)[C@H](CCCCNC(=O)CC[C@H](NC(=O)CNC(=O)c2cccc(NC(=O)N[C@@H]3CN(C4CCCCC4)c4ccccc4N(CC(=O)C(C)(C)C)C3=O)c2)C(=O)O)NC(=O)CN2CCN(CC(=O)O)CCN(CC(=O)O)CCN(CC(=O)O)CC2)C(=O)N[C@@H](Cc2ccc(O)cc2)C(=O)N[C@H](Cc2c[nH]c3ccccc23)C(=O)N[C@@H](CCCCN)C(=O)N[C@@H]([C@@H](C)O)C(=O)N1)C(=O)O` ? 14

Consider the additional compound presented here.
tissue uptake at 24 h for C[C@@H](O)[C@H](NC(=O)[C@@H]1CSSC[C@H](NC(=O)[C@@H](Cc2ccccc2)NC(=O)CNC(=O)COCCOCCNC(=O)[C@H](CCCCNC(=O)c2cccc(NC(=O)N[C@@H]3CN(C4CCCCC4)c4ccccc4N(CC(=O)C(C)(C)C)C3=O)c2)NC(=O)CN2CCN(CC(=O)O)CCN(CC(=O)O)CCN(CC(=O)O)CC2)C(=O)N[C@@H](Cc2ccc(O)cc2)C(=O)N[C@H](Cc2c[nH]c3ccccc23)C(=O)N[C@@H](CCCCN)C(=O)N[C@@H]([C@@H](C)O)C(=O)N1)C(=O)O [Compound I-53, DOTA-K(Z360)-OEG-G-f[CYwKTC]T-OH] ? 7.15
